Where these numbers come from: PubChem BioAssay (NCI)

assay: NCI Yeast Anticancer Drug Screen. Data for the mlh1 rad18 strain (AID 175); details: S. cerevisiae mlh1 rad18 strain growth inhibition; at 50.0 µM; active compounds read high
The panel holds about 79,000 compounds, 15% with a hit somewhere; the sample as a whole holds those more often. The source made the active and inactive calls. No stated cut-off is given here; in the data, active means growth inhibition above about 70%; inactive means the rest.
assay-metric: growth inhibition

Qu. Annotate the compound O=C(N/C(=C\c1ccccc1)C(=O)N1CCNCC1)c1ccccc1 with its measured growth inhibition.
Ans. 9.65% (inactive)

Qu. Annotate the compound C(=C\CSc1ccccn1)/CSc1ccccn1 with its measured growth inhibition.
Ans. 25% (inactive)

Qu. Annotate the compound COc1cc(O)c(OC)c(O)c1C(C)=O with its measured growth inhibition.
Ans. -0.65% (inactive)

Qu. Annotate the compound CCCCCCCCCCCCN(CC(O)C(O)C(OC1OC(CO)C(O)C(O)C1O)C(O)CO)C(=O)CCCCCCCCCCC (stereo unspecified) with its measured growth inhibition.
Ans. -50.5% (inactive)

Qu. Annotate the compound Cc1cc(C)c(C(=O)CCC(=O)O)c(C)c1 with its measured growth inhibition.
Ans. 16.6% (inactive)

Qu. Annotate the compound Cc1ccc(O)cc1C=C(Cl)Cl with its measured growth inhibition.
Ans. 11.4% (inactive)

Qu. Annotate the compound O=C(O)COc1cc(Cl)cc(F)c1Cl with its measured growth inhibition.
Ans. -2.55% (inactive)

Qu. Annotate the compound CCC(C)CN1C(=O)NC(C)(Cc2ccccc2)C1=O (stereo unspecified) with its measured growth inhibition.
Ans. 4.25% (inactive)

Qu. Annotate the compound NC(=O)n1ncc(Cl)c(Cl)c1=O with its measured growth inhibition.
Ans. 7.35% (inactive)

Qu. Annotate the compound Nc1ncc(C(=O)O)c(N)n1 with its measured growth inhibition.
Ans. 33.6% (inactive)

Qu. Annotate the compound CCOC(=O)c1c(-c2ccc(OC)cc2)c(C#N)c(=S)n(C2OC(COC(C)=O)C(OC(C)=O)C(OC(C)=O)C2OC(C)=O)c1-c1ccccc1 (stereo unspecified) with its measured growth inhibition.
Ans. 13.4% (inactive)

Qu. Annotate the compound Cc1ccc2c(c1)C(O)(CC(=O)c1ccccc1)C(=O)N2 (stereo unspecified) with its measured growth inhibition.
Ans. 1.35% (inactive)

Qu. Annotate the compound COC1OCC(O)C(O)C1OC (stereo unspecified) with its measured growth inhibition.
Ans. -19.1% (inactive)

Qu. Annotate the compound COc1ccc(/C=C/c2nc(=S)[nH][nH]2)cc1OC with its measured growth inhibition.
Ans. -3.1% (inactive)

Qu. Annotate the compound c1ccc(CN2CCCCC2)nc1 with its measured growth inhibition.
Ans. -10.2% (inactive)

Qu. Annotate the compound N/C=N/OC(=O)c1ccccc1 with its measured growth inhibition.
Ans. 8.25% (inactive)

Qu. Annotate the compound COC(=O)c1c(O)c(C#N)c2[nH]c3ccccc3n2c1=O with its measured growth inhibition.
Ans. -18.4% (inactive)

Qu. Annotate the compound COC(=O)C1CCc2c(OC)ccc(OC)c2C1=O (stereo unspecified) with its measured growth inhibition.
Ans. -7.95% (inactive)

Qu. Annotate the compound Nc1nc(CCC(=O)O)cs1 with its measured growth inhibition.
Ans. -18.7% (inactive)

Qu. Annotate the compound Nc1ccc(C(=O)OCCN2CCN(CCOC(=O)c3ccc(N)cc3)CC2)cc1 with its measured growth inhibition.
Ans. 28.4% (inactive)

Qu. Annotate the compound Cc1ncc(CN2CSC(CCO)C2C)c(N)n1 (stereo unspecified) with its measured growth inhibition.
Ans. 43.1% (inactive)

Qu. Annotate the compound Nc1cccc(N)n1 with its measured growth inhibition.
Ans. -14.6% (inactive)

Qu. Annotate the compound OC1c2ccccc2CC1Br (stereo unspecified) with its measured growth inhibition.
Ans. -8.15% (inactive)

Qu. Annotate the compound CC(=O)OCC1OC(OCCCc2ccccc2)C(OC(C)=O)C(OC(C)=O)C1OC(C)=O (stereo unspecified) with its measured growth inhibition.
Ans. 24.9% (inactive)

Qu. Annotate the compound NC(=O)NOCC(N)C(=O)O (stereo unspecified) with its measured growth inhibition.
Ans. -2.9% (inactive)

Qu. Annotate the compound Cc1cc(C(=O)O)c2c([nH]1)c(C)cc1nc3ccccc3c12 with its measured growth inhibition.
Ans. -19.2% (inactive)

* * *

assay: NCI Yeast Anticancer Drug Screen. Data for the cln2 rad14 strain (AID 165);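 further: 0% = growth equal to vehicle treated cultures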; conditions: S. cerevisiae cln2 rad14 strain, at 50.0 µM, active compounds read high
This is part of a sample that, as a whole, favours compounds with a hit. Of some 79,000 tested, about 15% had one in any assay.
assay-metric: growth inhibition (%)
Return type: number; implicit unit %.

Qu. Annotate the compound CN(C)CSC(=S)NCCNC(=S)SCN(C)C with its measured growth inhibition.
Ans. 5.95

Qu. Annotate the compound Clc1ccc(CSc2cnnc3c(Br)cccc23)c(Cl)c1 with its measured growth inhibition.
Ans. -39.2

Qu. Annotate the compound COc1ccc(C2CC(C)(O)Oc3cc4c(cc32)OCO4)cc1 (stereo unspecified) with its measured growth inhibition.
Ans. 43.6

Qu. Annotate the compound CCC(C)NC(=O)c1cccc2c1-c1ccccc1C2=O (stereo unspecified) with its measured growth inhibition.
Ans. 1.4

Qu. Annotate the compound CCN(CC)CC[n+]1ccc2c(C)c3[nH]c4ccccc4c3c(C)c2c1 with its measured growth inhibition.
Ans. 3.3

Qu. Annotate the compound CCc1cccc(CC)c1NC1=CC(=O)C(=O)c2ccccc21 with its measured growth inhibition.
Ans. 18.8

Qu. Annotate the compound O=C(Nc1ccc(S(=O)(=O)Nc2nccs2)cc1)c1cccnc1Nc1cccc(Cl)c1 with its measured growth inhibition.
Ans. 1.15

Qu. Annotate the compound O=C(O)CNc1ncnc2[nH]ncc12 with its measured growth inhibition.
Ans. 3.8

Qu. Annotate the compound CCc1ccccc1NC(C)=O with its measured growth inhibition.
Ans. -5.2

Qu. Annotate the compound Cc1ccc(S(=O)(=O)N/N=C2\CC[C@H]3[C@@H]4CC=C5C[C@@H](O)CC[C@]5(C)[C@H]4CC[C@]23C)cc1 with its measured growth inhibition.
Ans. 97

Qu. Annotate the compound COc1cc(-c2oc3ccccc3c(=O)c2O)cc(OC)c1OC with its measured growth inhibition.
Ans. -22.8

Qu. Annotate the compound CCOCCOCCOc1c(Cl)cc(Cl)cc1Cl with its measured growth inhibition.
Ans. -46

Qu. Annotate the compound C=C(C)C1CC=C(C)/C(=N\O)C1 (stereo unspecified) with its measured growth inhibition.
Ans. 3.05

Qu. Annotate the compound CCC(CO)NC(=O)c1cccnc1 (stereo unspecified) with its measured growth inhibition.
Ans. -19

Qu. Annotate the compound C=C1COC(/C=C(\C)CC/C=C(\C)CCl)C1 (stereo unspecified) with its measured growth inhibition.
Ans. 28.1

Qu. Annotate the compound CC(=O)OCC(=O)COC(C)=O with its measured growth inhibition.
Ans. 8.5

Qu. Annotate the compound O=C1CC2CCCC23CC2(CCN13)OCCO2 (stereo unspecified) with its measured growth inhibition.
Ans. -27.4

Qu. Annotate the compound CCCNS(=O)(=O)c1ccccc1C(=O)NC1CCCCC1 with its measured growth inhibition.
Ans. 10.8

Qu. Annotate the compound NC(=S)SCCC(=O)N1CCCC1 with its measured growth inhibition.
Ans. -19.6

Qu. Annotate the compound COC(=O)N1N=C(c2ccccc2)C(C(=O)OC)(C(=O)OC)c2ccccc21 with its measured growth inhibition.
Ans. 16.6

Qu. Annotate the compound Cc1ccc(-c2nnc(CCCCCCCCc3nnc(-c4ccc(C)cc4O)n3N)n2N)c(O)c1 with its measured growth inhibition.
Ans. 7.5

Qu. Annotate the compound CN(C)CCC(=O)c1cccc(O)c1 with its measured growth inhibition.
Ans. -37.6

Qu. Annotate the compound O=C(CN1C(=O)c2ccccc2C1=O)NCC(=O)N(C(=O)NC1CCCCC1)C1CCCCC1 with its measured growth inhibition.
Ans. 11.8

Qu. Annotate the compound COc1ccc(COC(=O)Oc2ccc(Cl)cc2)cc1OC with its measured growth inhibition.
Ans. 79.8

Qu. Annotate the compound CC(=Nc1cccc2ccccc12)c1c(O)cc(C)oc1=O with its measured growth inhibition.
Ans. 20.9

Qu. Annotate the compound COc1c2cc3c(cc2nc2occc12)OCO3 with its measured growth inhibition.
Ans. 2.6

* * *

experiment: NCI Yeast Anticancer Drug Screen. Data for the mec2-1 strain (AID 157); settings: S. cerevisiae mec2-1 strain, at 50.0 µM
About 79,000 compounds went through this panel and 15% of them were active in at least one assay; those are over-represented in the sample as a whole. Active and inactive are the calls of the source. Rule as the data show it: active = growth inhibition above about 70%; inactive = the rest.
The reply should be one of these categories: 1.0 (active), 0.0 (inactive)

Qu. What call does the record list for COC1=NCc2ccccc2-c2ccccc21 ?
Ans. 0.0

Qu. What call does the record list for O=C(N/N=C\c1ccc(Cl)cc1)Nc1ccc2ccccc2c1 ?
Ans. 0.0

Qu. What call does the record list for N#CC1=C(N2CCCC2)NC(=O)CC1=O ?
Ans. 0.0

Qu. What call does the record list for O=c1onc2n1-c1cc(Cl)ccc1C(=S)N1CSCC21 (stereo not drawn) ?
Ans. 0.0

Qu. What call does the record list for CCCCNc1nc(Cl)nc(C(F)(F)F)c1N ?
Ans. 0.0

Qu. What call does the record list for CC(=NNC(=S)Nc1ccccc1)c1cccc(C(C)=NNC(=S)Nc2ccccc2)n1 ?
Ans. 0.0

Qu. What call does the record list for C[N+]1(C)C/C(=C\c2ccc(O)cc2)C(=O)/C(=C/c2ccc(O)cc2)C1 ?
Ans. 0.0

Qu. What call does the record list for CC(=O)Oc1ccc(-c2c3ccccc3cc3c2ccc2ccccc23)cc1 ?
Ans. 0.0

Qu. What call does the record list for Nc1ccc(Cl)c(Cl)c1Cl ?
Ans. 0.0

Qu. What call does the record list for Cc1ccc(N2C(=O)/C(=C/c3ccc(N(CCC#N)CCC#N)cc3C)N=C2c2cc([N+](=O)[O-])ccc2Cl)cc1 ?
Ans. 0.0

Qu. What call does the record list for CCCC(C)(C)COC(=O)Cc1ccccc1 ?
Ans. 0.0

Qu. What call does the record list for COc1ccc(C(C)(O)c2cc3ccccc3n2S(=O)(=O)c2ccccc2)cc1 (stereo not drawn) ?
Ans. 0.0

Qu. What call does the record list for O=C1CSc2nc3c(Cl)cc(Cl)cc3c(=O)n21 ?
Ans. 0.0

Qu. What call does the record list for Cc1ccc(Cc2ccc(CCc3ccc(Cc4ccc(C)cc4)cc3)cc2)cc1 ?
Ans. 0.0

Qu. What call does the record list for COC(=O)C1(CCCCCBr)CCCCCCCCCCC1=O (stereo not drawn) ?
Ans. 0.0

Qu. What call does the record list for CC(=O)Oc1cc(I)cc(C(=O)O)c1 ?
Ans. 0.0

Qu. What call does the record list for Nc1nc(SCCc2ccccc2)nc2nc3c(c(-c4ccccc4)c12)CCCC3 ?
Ans. 0.0

Qu. What call does the record list for c1ccc2c(c1)CCCC(N1CCOCC1)C2 (stereo not drawn) ?
Ans. 0.0

Qu. What call does the record list for CCOc1c(Cl)cc(Cl)cc1C(c1ccc(Cl)cc1S(=O)(=O)O)c1cc(Cl)cc(Cl)c1OCC ?
Ans. 1.0

Qu. What call does the record list for CC(=O)OCC1OC2OC(C)(C)OC2C2OC(C)(C)OC12 (stereo not drawn) ?
Ans. 0.0

Qu. What call does the record list for CC(=O)OCC1OC(OCCCc2ccccc2)C(OC(C)=O)C(OC(C)=O)C1OC(C)=O (stereo not drawn) ?
Ans. 0.0

Qu. What call does the record list for C[C@]12CC[C@@H]3c4ccc(OS(C)(=O)=O)cc4CC[C@H]3[C@@H]1CC[C@@H]2OS(C)(=O)=O ?
Ans. 0.0

Qu. What call does the record list for CC(I)CNC1=NCC(=O)N1 (stereo not drawn) ?
Ans. 0.0
